biological target: Ephrin type-A receptor 6 (Mus musculus, UniProt Q62413); test: Displacement of biotinylated Fc-tagged ephrin-A1 from recombinant N/C-terminal 6-his tagged mouse EphA6 (Ser28 to Gln546 residues) preincubated for 1 hr followed by ephrin-A1-Fc addition and measured after 4 to 5 hrs by ELISA assay
Sequence (Q62413 whole entry): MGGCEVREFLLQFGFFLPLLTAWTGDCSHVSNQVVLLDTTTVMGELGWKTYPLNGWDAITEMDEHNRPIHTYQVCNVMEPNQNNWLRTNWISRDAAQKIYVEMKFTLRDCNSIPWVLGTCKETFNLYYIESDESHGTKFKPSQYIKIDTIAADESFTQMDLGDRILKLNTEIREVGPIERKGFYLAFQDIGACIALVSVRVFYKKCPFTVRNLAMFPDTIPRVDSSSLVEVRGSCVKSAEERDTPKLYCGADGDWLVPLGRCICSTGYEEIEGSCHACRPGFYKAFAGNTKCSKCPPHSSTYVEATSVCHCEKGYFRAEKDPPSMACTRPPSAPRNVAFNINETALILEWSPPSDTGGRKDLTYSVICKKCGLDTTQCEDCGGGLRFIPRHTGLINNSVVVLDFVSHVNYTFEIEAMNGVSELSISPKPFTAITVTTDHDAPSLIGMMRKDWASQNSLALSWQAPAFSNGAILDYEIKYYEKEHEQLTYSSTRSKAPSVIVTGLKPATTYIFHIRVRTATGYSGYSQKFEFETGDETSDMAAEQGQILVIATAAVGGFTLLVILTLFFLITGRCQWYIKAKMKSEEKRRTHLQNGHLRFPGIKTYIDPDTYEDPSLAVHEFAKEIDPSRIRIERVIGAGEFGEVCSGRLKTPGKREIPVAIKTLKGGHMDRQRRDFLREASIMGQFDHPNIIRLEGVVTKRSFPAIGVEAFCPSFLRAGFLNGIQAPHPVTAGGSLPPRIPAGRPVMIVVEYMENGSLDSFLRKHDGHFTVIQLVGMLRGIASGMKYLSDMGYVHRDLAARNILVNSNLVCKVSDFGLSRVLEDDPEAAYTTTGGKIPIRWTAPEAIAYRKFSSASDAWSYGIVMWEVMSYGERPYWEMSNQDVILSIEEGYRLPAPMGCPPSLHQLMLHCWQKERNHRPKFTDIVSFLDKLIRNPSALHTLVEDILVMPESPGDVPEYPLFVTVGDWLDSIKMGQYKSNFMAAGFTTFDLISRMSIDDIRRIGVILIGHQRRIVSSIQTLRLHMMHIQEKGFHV
Listing: IC50 of selected molecules
observed_property: IC50 (µM)

compound_structure_string: C[C@H](CCC(=O)N[C@H](CC(=O)O)Cc1cn(S(=O)(=O)c2ccccc2)c2ccccc12)[C@H]1CC[C@H]2[C@@H]3CC=C4C[C@@H](O)CC[C@]4(C)[C@H]3CC[C@]12C
observed_property: IC50
units_of_measure: µM
value_observed: 11
//
compound_structure_string: C[C@H](CCC(=O)N[C@H](CC(=O)O)Cc1c[nH]c2ccccc12)[C@H]1CC[C@H]2[C@@H]3CC=C4C[C@@H](O)CC[C@]4(C)[C@H]3CC[C@]12C
observed_property: IC50
units_of_measure: µM
value_observed: 2.9
//
compound_structure_string: C[C@H](CCC(=O)N[C@H](CC(=O)O)Cc1cn(S(=O)(=O)c2ccc(C(F)(F)F)cc2)c2ccccc12)[C@H]1CC[C@H]2[C@@H]3CC=C4C[C@@H](O)CC[C@]4(C)[C@H]3CC[C@]12C
observed_property: IC50
units_of_measure: µM
value_observed: 10
